- SYSTEM_NAME: SARS-CoV-2 Spike Protein (RBD)(R319-F541).hFc (SARS-CoV-2)
- METHOD_NOTES: Luminex bead assay, antigen on microspheres, antibody supernatant
- TEST_PARAMETERS: remark: other sources report otherwise
METRIC_NAME: Binding signal (MFI)
// units = MFI; emit number, no label

mAb11006 (antibody, V domains shown) VH: EVQLVESGGGLVQPGGSLRLSCAASGFIVSRNYMSWVRQAPGKGLEWVSVIYSGGSTFYADSVKGRFTISRHNSKNTLYLQMNSLKAEDTAVYYCARELRGYFDYWGQGTLVTVSS VL: DIQLTQSPSFLSASVGDRVTITCWASQGISSYLAWYQQKPGKAPKLLIYAASTLQSGVPSRFSGSGSGTEFTLTISSLQPEDFATYYCQLLNSYPYTFGQGTKLEIK ... 3980
mAb11004 (antibody, V domains shown) VH: QVQLVESGGGVVQPGRSLRLSCVASGFTFSIYGMDWVRQAPGKGLEWVAVISYDGSNKYYADSVKGRFTISRDNSKNTLYLQMNSLRPEDTAVYYCAKDREAAADAFDIWGQGTMVTVSS VL: DIQMTQSPSSVSASVGDRVTITCRASQGISSWLAWYQQKPGKAPKLLIYAASSLHSGVPSRFSGSGSGTDFTLTISSLQPEDFATYYCQQANSFRLTFGGGTKVEIK ... 4880
mAb11008 (antibody, V domains shown) VH: EVQLVESGGGLVQPGGSLRLSCAASGFTVSSNYMTWVRQAPGKGLEWVSVIYSGGSTFYADSVKGRFTISRHNSENTLYLQMNSLRAEDTAVYYCARDLAAAGTDYWGQGALVTVSS VL: DIQLTQSPSFLSASVGDRVTITCWASQGISSYLAWYQQKPGKAPKLLIYAASTLQSGVPSRFSGSGSGTEFTLTISSLQPDDFATYYCQHLNSYLYTFGQGTKLEIK ... 2570

Let's switch to this binder now.
Documented Binding signal (MFI) of mAb10998 (antibody, V domains shown) VH: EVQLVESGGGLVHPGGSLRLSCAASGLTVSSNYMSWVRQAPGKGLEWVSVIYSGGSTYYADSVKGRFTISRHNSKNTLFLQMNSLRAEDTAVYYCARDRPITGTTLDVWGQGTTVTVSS VL: DIQMTQSPSSLFASVGDRVTITCRASQSISSYLNWYQQKPGKAPKLLIYAASSLQSGVPSRFSGSGSGTDFTLTISSLQPEDFAFYYCQQTYSTPPITFGQGTRLEIK : 1740
